The reported measurements were obtained from ChEMBL document CHEMBL1201862.

Test system: SW-620
Test: NCI tumour cell line growth inhibition, 48 h
Calls of active or inactive are those of the source. Cut-off read from the data, not from the text of the source: active = GI50 up to about 1.1 µM and inactive = higher.
reported-metric: GI50

Q: Request the reported GI50 associated with `O=C1OC(c2ccccc2)=N/C1=C\c1cc(Cl)ccc1Cl`
A: 34.9 µM (inactive)

Q: Request the reported GI50 associated with `C=C(Nc1ccc([N+](=O)[O-])cc1[N+](=O)[O-])c1c/c(=N\NC(N)=S)c2ccccc2o1`
A: 39.8 µM (inactive)

Q: Request the reported GI50 associated with COc1ccc(-c2c3c(n(C4OC(COC(C)=O)C(OC(C)=O)C(OC(C)=O)C4OC(C)=O)c(=S)c2C#N)CCC3)cc1 (stereo not given)
A: > 100 µM (inactive)

Q: Request the reported GI50 associated with `CNS(=O)(=O)NNS(=O)(=O)c1ccc2ccccc2c1`
A: > 100 µM (inactive)

Q: Request the reported GI50 associated with `O=C(/C=C/c1c(O)ccc2ccccc12)c1ccc2ccccc2c1`
A: > 100 µM (inactive)

Q: Request the reported GI50 associated with C1=CC2CCC1CN2CCC1CNc2ccccc21 (stereo not given)
A: > 100 µM (inactive)

Q: Request the reported GI50 associated with `Nc1c(C(=O)NC23CC4CC(CC(C4)C2)C3)[n+]([O-])c2ccccc2[n+]1[O-]`
A: > 100 µM (inactive)

Q: Request the reported GI50 associated with `N/C(S)=N/N=C/c1ccc(N)cn1`
A: > 10 µM (inactive)

Q: Request the reported GI50 associated with `CCCCCNC(=O)c1c(O)[nH]c(=S)[nH]c1=O`
A: > 100 µM (inactive)

Q: Request the reported GI50 associated with `COc1ccc(C[C@H]2COC(=O)[C@@H]2Cc2ccc(Br)cc2)cc1OC`
A: 44.7 µM (inactive)
